biological target: unrelated Fc-fused recombinant protein; assay: ELISA, lysate on plate-bound antigen
Listed below: ELISA Fc Control (RSU) values for each entry.

# binder, unitSymbol, ELISA Fc Control (RSU)
rows = [
    ("ISOP121AR5P1A8 (designed binder, not shown: small tags and cut ends, FN3 domain; E. coli lysate in the ELISA) LPAPKNLVVSRVTEDSARLSWGLEWAYQFFDSFLIQYQESEKVGEAIVLTVPGSERSYDLTGLKPGTEYTVSIYGVYLRAIEFYSNPLSAIFTT", "RSU", 560),
    ("ISOP121GR5P1F7 (designed binder, not shown: small tags and cut ends, FN3 domain; E. coli lysate in the ELISA) LPAPKNLVVSRVTEDSARLSWTAPDAAFDSFGINYVERASEGEAIDLGVPGSERSYDLTGLKPGTEYFVKIFGVKGGIPSVPLWAWFTT", "RSU", 640),
    ("ISOP121FR5P1G11 (designed binder, not shown: small tags and cut ends, FN3 domain; E. coli lysate in the ELISA) LPAPKNLVVSRVTEDSARLSWTAPDAAFDSFSIWYLEIVAHGEAIVLTVPGSERSYDLTGLKPGTEYEVIIHGVKGCGPSGPLSAIFTT", "RSU", 880),
    ("ISOP121AR5P1E11 (designed binder, not shown: small tags and cut ends, FN3 domain; E. coli lysate in the ELISA) LPAPKNLVVSRVTEDSARLSWSVQTSFVFDSFLIQYQESEKVGEAIVLTVPGSERSYDLTGLKPGTEYTVSIYGVPLWHGFDSNPLSAIFTT", "RSU", 720),
]
